Data credit: paper PMC10722324

pIC50: −log10 of the molar value.
Dear all, this message contains pIC50 results, target or system BuChE (Homo sapiens, UniProt P06276).
quantity.measured: pIC50

• COc1c2ccoc2cc2oc(-c3ccccc3)cc(=O)c12 [CY2, pinnatin] = 4.09
• COc1c(C(=O)/C=C(\O)c2ccccc2)ccc2occc12 [CY3, pongamol] = 3.99

###

Tested on: differentiated SH-SY5Y cells
Test: Toxicity screening on differentiated SH-SY5Y cells
Format: cell-based, human
Details: 0.1 μM, MTT, mean ± SD (n = 5)
# Lookup of reported Cell viability keyed by entry
quantity.measured: Cell viability (% control)

* COc1c(C(=O)/C=C(\O)c2ccccc2)ccc2occc12 [CY3, pongamol] | 103.3
* COc1c2ccoc2cc2oc(-c3ccccc3)cc(=O)c12 [CY2, pinnatin] | 96.7
* COc1cc(/C=C/C(=O)CC(=O)/C=C/c2ccc(O)c(OC)c2)ccc1O [Curcumin, reference compound] | 104.1
* O=c1cc(-c2ccccc2)oc2c1ccc1occc12 [CY14, lanceolatin B] | 102.4
